test system: SK-OV-3 ovarian; experiment: NCI tumour cell line growth inhibition, 384-well format
# Lookup of reported TGI keyed by entry

# example entries with known answers
COMPOUND	TGI
CC(C)n1c(=O)n(C)c2cnc3cc(F)c(-c4ccc(OCCCN5CCCCC5)nc4)cc3c21	> 100 µM
OCC1OC(n2cnc3c2NC=NC[C@H]3O)CC1O (some centres undefined)	> 100 µM
CS(=O)(=O)c1ccc(Oc2cc(F)cc(C#N)c2)c2c1[C@H](O)C(F)(F)C2	> 100 µM

Pending compound:
GET /value?item= `COc1ccc(-c2nc(N3CCOCC3)c3sc(CN(C)c4ncc(C(=O)NO)cn4)cc3n2)cn1` &field=TGI returns < 0.01 µM
